Data credit: PubChem BioAssay AID1159580

- Test Name: chemical genetic growth profiling, strain panel (AID 1159580);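 also: tested at 20 µM; growth read once vehicle control cultures reached saturation at 30 °C; 1 = growth at the plate median or of vehicle wells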
- Run Conditions: S. cerevisiae deletion strains, growth OD, locus YLR262C, strain YPT6
The whole screen tested about 5,500 compounds, of which about 2,000 (36%) were called active. Inconclusive results (about 18%) are left out. Rule as the data show it: active = normalized growth mostly below about 0.91 (no sharp cut-off); inconclusive = no clear call, values can overlap the other calls; inactive = mostly above about 0.92. The list shows a part of the results.
I would appreciate it if you answered using one of these outcomes: active, inactive

Previously resolved entries follow.
- Compound: "Cc1cc(C)c(NC(=S)NCCCN2CCOCC2)c(C)c1"
  Label Value: "inactive"
- Compound: "C[N+](C)(C)CCOP(=O)([O-])OP(=O)(O)OC[C@H]1OC(n2ccc(N)nc2=O)[C@H](O)[C@@H]1O (stereo not given in full)"
  Label Value: "inactive"
- Compound: "CC1(C)C2CC[C@]3(C)C(C(=O)C=C4[C@H]5C[C@@](C)(C(=O)O)CC[C@]5(C)CC[C@]43C)[C@@]2(C)CC[C@@H]1O (stereo not given in full)"
  Label Value: "inactive"
- Compound: "CC(=O)O[C@@](C)(CCC=C(C)C)C1CC=C(C)CC1 (stereo not given in full)"
  Label Value: "inactive"
- Compound: "CCc1nc(N)nc(N)c1-c1ccc(Cl)cc1"
  Label Value: "inactive"

Query string: Just curious, what result did NC[C@@H]1O[C@H](O[C@@H]2[C@@H](CO)OC(O[C@@H]3[C@@H](O)[C@H](N)C[C@H](N)[C@H]3OC3O[C@H](CN)[C@@H](O)[C@H](O)[C@H]3N)[C@@H]2O)[C@H](N)[C@@H](O)[C@@H]1O (stereo not given in full) get here?
Result string: inactive

Query string: Just curious, what result did O=C(/C=C/C=C/c1ccc2c(c1)OCO2)N1CCCCC1 get here?
Result string: inactive

----------
This listing pairs compounds with measured normalized growth.
- Test Name: chemical genetic growth profiling, strain panel (AID 1159580)
- Run Conditions: S. cerevisiae deletion strains, growth OD, locus YDL132W, strain cdc53, stronger effect = lower value
Out of some 5,500 compounds screened, about 2,000 (36%) were called active. Another 18% or so got no clear call; they are omitted. Some of the results follow.
Answer with a bare number; do not write a unit.

// solved cases for normalized growth follow
- Query Smiles: "C/C(=N/NC(N)=S)c1ccccn1"
  normalized growth: 0.949
- Query Smiles: "N#C/C(=C\\c1ccccc1Sc1ccc(Cl)cc1)S(=O)(=O)c1ccccn1"
  normalized growth: 0.959

Now, please, on to the next compound.
N#C/C(=N/Nc1ccccc1Cl)S(=O)(=O)c1ccc(Cl)cc1 has a reported normalized growth of 0.971

----------
- Test Name: chemical genetic growth profiling, strain panel (AID 1159580);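 also: tested at 20 µM; growth read once vehicle control cultures reached saturation at 30 °C; 1 = growth at the plate median or of vehicle wells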
- Run Conditions: S. cerevisiae deletion strains, growth OD, locus YDR069C, strain doa4, stronger effect = lower value
Out of some 5,500 compounds screened, about 2,000 (36%) were called active. Inconclusive results (about 18%) are left out. The list shows a part of the results.
Measurement Type: normalized growth
Answer with a bare number; do not write a unit.

- Compound: "CC(=O)CC(=O)CCC(=O)O"
  normalized growth: 1.03
- Compound: "C[N+](C)(C)CC(=O)[O-]"
  normalized growth: 0.955

CC1(C)C2CC[C@]3(C)C(C(=O)C=C4[C@@H]5C[C@@](C)(C(=O)O)CC[C@]5(C)CC[C@]43C)[C@@]2(C)CC[C@@H]1OC(=O)CCC(=O)O (stereo not given in full) has a reported normalized growth of 0.938

CC(C(=O)O)c1ccc2c(c1)[nH]c1ccc(Cl)cc12 (stereo not given) has a reported normalized growth of 0.984

CC[C@H]1OC(=O)C[C@@H](O)[C@H](C)[C@@H](O[C@@H]2O[C@H](C)[C@@H](O[C@H]3C[C@@](C)(O)[C@@H](O)[C@H](C)O3)[C@H](N(C)C)[C@H]2O)[C@@H](CC=O)C[C@@H](C)C(=O)/C=C/C(C)=C/[C@@H]1CO[C@@H]1O[C@H](C)[C@@H](O)[C@@H](OC)[C@H]1OC has a reported normalized growth of 0.995

O=C1C[C@@H](c2ccc(O)cc2)Oc2cc(O)cc(O)c21 has a reported normalized growth of 0.944

COc1ccc(C2CC(=O)c3ccc(OC)cc3O2)cc1 (stereo not given) has a reported normalized growth of 0.953

OCCN(CCO)c1nc(N2CCCCC2)c2nc(N(CCO)CCO)nc(N3CCCCC3)c2n1 has a reported normalized growth of 0.969

COc1c(O)cc2oc3cc(O)c(CC=C(C)C)c(O)c3c(=O)c2c1CC=C(C)C has a reported normalized growth of 0.89

COC(=O)COc1cc(Cl)c(Cl)cc1Cl has a reported normalized growth of 1.02

O=C1CC(c2ccc(O)c(O)c2)Oc2cc(O)cc(O)c21 (stereo not given) has a reported normalized growth of 0.958

COc1cc(O)c2c(=O)cc(C)oc2c1CC=C(C)C has a reported normalized growth of 0.97

O=C(O)COc1cc(Cl)c(Cl)cc1Cl has a reported normalized growth of 0.994

CC1(C)C2CC[C@]3(C)C(C(=O)C=C4[C@@H]5C[C@@](C)(C(=O)O)CC[C@]5(C)CC[C@]43C)[C@@]2(C)CC[C@@H]1O (stereo not given in full) has a reported normalized growth of 1

NC(=O)N1c2ccccc2CC(=O)c2ccccc21 has a reported normalized growth of 0.963

NC/C=C/C(=O)O has a reported normalized growth of 1.03

CCc1nc(N)nc(N)c1-c1ccc(Cl)cc1 has a reported normalized growth of 0.898

N=c1nc(N2CCCCC2)cc(N)n1O has a reported normalized growth of 0.996

COc1ccc(C[C@H]2NC[C@H](O)[C@H]2OC(C)=O)cc1 has a reported normalized growth of 0.117

CC(=O)O[C@]1(C(C)=O)CCC2C3C[C@H](C)C4=CC(=O)CC[C@]4(C)C3CC[C@@]21C (stereo not given in full) has a reported normalized growth of 0.992

----------
- Test Name: chemical genetic growth profiling, strain panel (AID 1159580);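 also: tested at 20 µM; growth read once vehicle control cultures reached saturation at 30 °C; 1 = growth at the plate median or of vehicle wells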
- Run Conditions: S. cerevisiae deletion strains, growth OD, locus YJL115W, strain asf1, stronger effect = lower value
About 2,000 (36%) of roughly 5,500 compounds were called active. Not shown: some 18% with an inconclusive outcome. This is one part of the list.
normalized growth vs 1: less than gives TRUE; not less than gives FALSE.

Previously resolved entries follow.
- Compound: "CN=C(NC#N)NCCSCc1nc(N=C(N)N)cs1"
  Label Value: "TRUE"
- Compound: "CC(C)CC1C(=O)N2CCC[C@H]2C2(O)O[C@](NC(=O)C3C=C4c5cccc6[nH]c(Br)c(c56)C[C@H]4N(C)C3)(C(C)C)C(=O)N12 (stereo partly drawn)"
  Label Value: "TRUE"
- Compound: "N=c1nc(N2CCCCC2)cc(N)n1O"
  Label Value: "TRUE"

Query string: I wonder whether C[C@@H]1O[C@@H](O[C@H]2[C@@H](Oc3cc(O)c4c(c3)O[C@H](c3ccc(O)cc3)CC4=O)O[C@H](CO)[C@@H](O)[C@@H]2O)[C@H](O)[C@H](O)[C@H]1O has normalized growth below 1. Can you tell?
Result string: TRUE

Query string: I wonder whether O=C1C[C@@H](c2ccc(O)cc2)Oc2cc(O)cc(O)c21 has normalized growth below 1. Can you tell?
Result string: TRUE

Query string: I wonder whether CC1(C)S[C@@H]2[C@H](NC(=O)[C@H](NC(=O)N3CCNC3=O)c3ccccc3)C(=O)N2C1C(=O)O (stereo partly drawn) has normalized growth below 1. Can you tell?
Result string: TRUE

Query string: I wonder whether COc1cccc([C@]2(O)CCCC[C@H]2CN(C)C)c1 has normalized growth below 1. Can you tell?
Result string: TRUE

Query string: I wonder whether COc1ccc(-c2cc(=O)c3c(O)cc(OC)c(OC)c3o2)c(OC)c1 has normalized growth below 1. Can you tell?
Result string: FALSE

Query string: I wonder whether C=CC1=C(C(=O)O)N2C(=O)[C@@H](NC(=O)/C(=N/O)c3csc(N)n3)[C@H]2SC1 has normalized growth below 1. Can you tell?
Result string: FALSE

----------
- Test Name: chemical genetic growth profiling, strain panel (AID 1159580);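 also: tested at 20 µM; growth read once vehicle control cultures reached saturation at 30 °C; 1 = growth at the plate median or of vehicle wells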
- Run Conditions: S. cerevisiae deletion strains, growth OD, locus YDR195W, strain ref2
Hit rate of the full screen: of about 5,500 compounds, about 2,000 (36%) were called active. Inconclusive results (about 18%) are left out. Rule as the data show it: active = normalized growth mostly below about 0.91 (no sharp cut-off); inconclusive = no clear call, values can overlap the other calls; inactive = mostly above about 0.92. The list shows a part of the results.
I would appreciate it if you answered using one of these outcomes: class 1 for active, class 0 for inactive

Previously resolved entries follow.
- Compound: "NC(=O)N1c2ccccc2CC(=O)c2ccccc21"
  Label Value: "class 0"
- Compound: "CCN(CC)C(=S)SSC(=S)N(CC)CC"
  Label Value: "class 1"
- Compound: "COc1ccc([C@@H]2CC(=O)c3c(O)cc(O)cc3O2)cc1O"
  Label Value: "class 0"
- Compound: "COc1cc(OC)c2c(c1)O[C@H](c1ccc(OC)c(OC)c1)[C@@H](O)C2"
  Label Value: "class 0"
- Compound: "c1ccc(CN(CC2=NCCN2)c2ccccc2)cc1"
  Label Value: "class 0"

Query string: Just curious, what result did CC(C)(C)CC(C)(C)c1ccc(OCCOCC[N+](C)(C)Cc2ccccc2)cc1 get here?
Result string: class 1

Query string: Just curious, what result did N#Cc1c(Cl)c(Cl)c(Cl)c(C#N)c1Cl get here?
Result string: class 1
